Here, each record is paired with measured activity coefficient data.
assay: activity coefficient (dimensionless); of the first substance listed, at infinite dilution; xn = mol fraction of the nth substance listed; conditions: 333.15 K; 101.33 kPa; Liquid; Chromatography; x1 = 0
Write no unit; give the number alone.

CCc1ccccc1 [ethylbenzene] + C[n+]1ccn(CCCCS(=O)(=O)O)c1.O=S(=O)([O-])O ... 57.6
CCOCC [diethyl ether] + C[n+]1ccn(CCCCS(=O)(=O)O)c1.O=S(=O)([O-])C(F)(F)F ... 4.36
ClC(Cl)(Cl)Cl [tetrachloromethane] + C[n+]1ccn(CCCCS(=O)(=O)O)c1.O=S(=O)([O-])C(F)(F)F ... 12.1
ClC(Cl)Cl [trichloromethane] + C[n+]1ccn(CCCCS(=O)(=O)O)c1.O=S(=O)([O-])C(F)(F)F ... 2.18
C[N+](=O)[O-] [nitromethane] + C[n+]1ccn(CCCCS(=O)(=O)O)c1.O=S(=O)([O-])O ... 1.59

### Prompt Dear colleague, please send me the reported activity coefficient for CCCCCCCCCCCC [dodecane] + C[n+]1ccn(CCCCS(=O)(=O)O)c1.O=S(=O)([N-]S(=O)(=O)C(F)(F)F)C(F)(F)F when you can.
### Response 588

### Prompt # return recorded activity coefficient for entry ClCCl [dichloromethane] + C[n+]1ccn(CCCCS(=O)(=O)O)c1.O=S(=O)([O-])O
### Response 3.48

###

assay: activity coefficient (dimensionless); of the first substance listed, at infinite dilution; xn = mol fraction of the nth substance listed; conditions: 323.15 K; 101.33 kPa; Liquid; Chromatography; x1 = 0
Below: a set of entries, each annotated with reported activity coefficient.

Example entries begin here.
CCCCCCCCCCCCC [tridecane] + C[n+]1ccn(CCCCS(=O)(=O)O)c1.O=S(=O)([N-]S(=O)(=O)C(F)(F)F)C(F)(F)F ... 1080
CCCCCCCCCCC [undecane] + C[n+]1ccn(CCCCS(=O)(=O)O)c1.O=S(=O)([O-])O ... 1490

Note: attention shifts to another entry.
### Prompt Provide activity coefficient value for the following compound: CCC(=O)CC [pentan-3-one] + C[n+]1ccn(CCCCS(=O)(=O)O)c1.O=S(=O)([O-])O
### Response 14.2

###

assay: activity coefficient (dimensionless); of the first substance listed, at infinite dilution; xn = mol fraction of the nth substance listed; conditions: 343.15 K; 101.33 kPa; Liquid; Chromatography; x1 = 0
property_measured: activity coefficient

C[N+](=O)[O-] [nitromethane] + C[n+]1ccn(CCCCS(=O)(=O)O)c1.O=S(=O)([N-]S(=O)(=O)C(F)(F)F)C(F)(F)F ... 0.6
Cc1ccccc1C [1,2-dimethylbenzene] + C[n+]1ccn(CCCCS(=O)(=O)O)c1.O=S(=O)([N-]S(=O)(=O)C(F)(F)F)C(F)(F)F ... 4.8
CCCCCCCCCCCCC [tridecane] + C[n+]1ccn(CCCCS(=O)(=O)O)c1.O=S(=O)([O-])O ... 1350

### Prompt Give the value of activity coefficient reported for the following: Cc1ccc(C)cc1 [1,4-dimethylbenzene] + C[n+]1ccn(CCCCS(=O)(=O)O)c1.O=S(=O)([N-]S(=O)(=O)C(F)(F)F)C(F)(F)F
### Response 5.55

### Prompt Write down activity coefficient measured for item CCC(C)=O [butanone] + C[n+]1ccn(CCCCS(=O)(=O)O)c1.O=S(=O)([O-])C(F)(F)F
### Response 0.96

### Prompt Quickly give me recorded activity coefficient for CC#N [acetonitrile] + C[n+]1ccn(CCCCS(=O)(=O)O)c1.O=S(=O)([O-])C(F)(F)F
### Response 0.68

### Prompt Check the records and state activity coefficient for CCC[N+](=O)[O-] [1-nitropropane] + C[n+]1ccn(CCCCS(=O)(=O)O)c1.O=S(=O)([O-])C(F)(F)F
### Response 1.77

Origin of the recorded values: the NIST ThermoML archive (doi:10.1016/j.fluid.2014.06.021)
